Numbers sourced from ChEMBL document CHEMBL3351280.

assay: Apparent permeability from apical to basolateral side in human Caco2 cells at 100 uM; assay type: ADME, cell-based; settings: Caco-2
endpoint: Papp A→B at 100 µM
Answer with the number, then the unit.

I'd like to know its Papp A→B at 100 µM. The compound in question is CS(=O)(=O)NC(=O)[C@H](Cc1ccccc1)NC(=O)OCc1ccccc1
6 ×10⁻⁶ cm/s

----------
assay: in vitro; settings: human, Caco-2
Description: Efflux ratio of apparent permeability from basolateral to apical side to apical to basolateral side of human Caco2 cells at 25 uM
Recorded efflux ratio at 25 µM by entry

1. O=C(N[C@@H](Cc1ccccc1)C(=O)NNC(=O)c1ccccc1)OCc1ccccc1 :: 1.3

Would you kindly look at the next entry?
I'd like to know its efflux ratio at 25 µM. The compound in question is N#CNC(=O)[C@H](Cc1ccccc1)NC(=O)OCc1ccccc1
1.2
